experimental.details: NCI Yeast Anticancer Drug Screen. Data for the mec2-1 strain (AID 157)
setup.conditions: S. cerevisiae mec2-1 strain, at 11.0 µM
Compounds without any hit were thinned out: in the full panel of roughly 79,000, 15% have a hit. Calls of active or inactive are those of the source. No stated cut-off is given here; in the data, active means growth inhibition above about 70%; inactive means the rest.
Thanks in advance; please answer with one of these: Yes for active, No for inactive

input: Hi team, can someone confirm the assay call for "CSc1nc(C)c(CCOC(C)=O)c(N=P(c2ccccc2)(c2ccccc2)c2ccccc2)n1" ?
output: No

input: Proceed to "CCOC(=O)c1[nH]cc(C)c1-c1cccn1-c1ccc(Cl)cc1[N+](=O)[O-]"
output: No

input: Proceed to "O=Cc1ccc2c(c1)C(=O)c1ccccc1C2=O"
output: No

input: Proceed to N#CC1=C(N)N(/N=C/c2ccccc2)C(c2ccccc2)C1(C#N)C#N (configuration not stated)
output: Yes

input: Proceed to CCCCN(CCCC)CCC(O)c1cc2c(Cl)cc(Cl)cc2c2cc(C(F)(F)F)ccc12 (configuration not stated)
output: Yes

input: Proceed to C=C1C(=O)OC2CC1C(OC(C)=O)C/C(C)=C/CC/C(C)=C\CCC2(C)O (configuration not stated)
output: No

input: Proceed to "CCCCCOC(=S)SC(=O)OCC"
output: No

input: Proceed to "Cc1ccc(NCCNCCO)c2c(=O)c3cc(O)ccc3sc12"
output: No

input: Proceed to "Cc1c(C)c(C)c(CSC(=N)N)c(C)c1C"
output: No

input: Proceed to "c1ccc2c(c1)sc1c3cnccc3ccc21"
output: No

input: Proceed to "O/N=C\c1c(O)ccc2ccccc12"
output: No

input: Proceed to Cc1nc2c(Br)cc(Br)cc2c(=O)n1-c1ccccc1NC1OCC(O)C(O)C1O (configuration not stated)
output: No

input: Proceed to "Cn1c(-c2ccc(/C=N\N3CCN(/N=C/c4ccc(-c5c[n+]6ccccc6n5C)cc4)CC3)cc2)c[n+]2ccccc12"
output: No

input: Proceed to "COc1ccc(/C=C/C(=O)c2ccccc2)cc1OC"
output: No

input: Proceed to "O=[n+]1c2ccccc2n([O-])c2cc(Br)ccc21"
output: Yes

input: Proceed to "CCN(CC)CCN(C)CCc1ccc(Br)cc1"
output: No

input: Proceed to O=C1C=C(c2ccccc2)OC1(c1ccccc1)N1CCOCC1 (configuration not stated)
output: No

input: Proceed to "Cc1cc(C)c(NC(=S)NC(=O)c2ccccc2)cc1C"
output: No

input: Proceed to O=C1OC(C2=CC(=O)c3ccccc3C2=O)C(Cl)=C1Cl (configuration not stated)
output: No

input: Proceed to "O=C1Nc2ccc(Br)cc2C1=Nc1ccc2c(c1)OCO2"
output: No

input: Proceed to "O=c1nc2n(Cc3ccccc3)c3ccccc3nc-2c(=O)[nH]1"
output: No

input: Proceed to "S=c1sc2c(s1)SCCS2"
output: No

input: Proceed to "CCN(CC)CCNc1ccc([N+](=O)[O-])c2nc3ccccc3c(N)c12"
output: No

input: Proceed to "CCC(=O)c1cc(C(=O)C(=S)SC)cc(C(=O)C(=S)SC)c1"
output: Yes

input: Proceed to CCCCCCC(O)CNCc1ccnc2ccc(OC)cc12 (configuration not stated)
output: No

input: Proceed to "Cc1cc(=O)oc2c(C)c3occc(=O)c3cc12"
output: No

input: Proceed to "CCN(CC)Cc1cc(Nc2c3ccccc3nc3c2[nH]c2ccccc23)cc(CN(CC)CC)c1O"
output: No

input: Proceed to "O=C(O)c1ccccc1/C=N/N=C1c2ccccc2-c2ccccc21"
output: No

input: Proceed to "O=C(O)CNC(=S)Nc1ccccc1"
output: No

input: Proceed to "OCC(CO)C(c1cccc2ccccc12)c1cccc2ccccc12"
output: Yes

input: Proceed to "CN(C)N=Nc1ccccc1C(=O)NC#N"
output: Yes

input: Proceed to "O=C1C=C(Cl)C(=O)N1c1cccc(Cl)c1"
output: Yes

input: Proceed to "CCOC(=O)C(C(=O)OCC)=P(c1ccccc1)(c1ccccc1)c1ccccc1"
output: No

input: Proceed to "O=[N+]([O-])c1ccc2c(c1)/C(=N/N=C1c3ccccc3Cc3ccccc31)c1cc([N+](=O)[O-])cc([N+](=O)[O-])c1-2"
output: Yes

input: Proceed to "CC1=CC(=C(c2ccc(N)cc2)c2ccc(N)cc2)C=CC1=N"
output: No

input: Proceed to CC1SC2(C(=O)Nc3ccc(Cl)cc32)N(c2ccc(Cl)cc2)C1=O (configuration not stated)
output: No

input: Proceed to "Cc1ccc(S/C(=C\C(=O)O)c2ccccc2)cc1"
output: No

input: Proceed to COc1cc(C2SCC(=O)N2c2ccc(-c3ccc(-n4c(-c5ccccc5)nc5ccccc5c4=O)cc3)cc2)ccc1O (configuration not stated)
output: No

input: Proceed to "CCO/C(C)=C(/C#N)C(N)=S"
output: No

input: Proceed to "COc1ccc(N=CN(C)C)c(C)c1"
output: No

input: Proceed to "COC1=C(OC)C(=O)C(Sc2ccc3ccccc3c2)=CC1=O"
output: No

input: Proceed to "COc1ccc(C(=O)c2ccccc2C(=O)c2ccccc2OC)cc1"
output: No

input: Proceed to "Cc1sc2ccc3ccccc3c2[n+]1C"
output: No

input: Proceed to CC(=O)OCC1OC2OC(=O)NC2C(OC(C)=O)C1OC(C)=O (configuration not stated)
output: No

input: Proceed to "CCc1cc(O)c(Cl)c(C)c1Cl"
output: No

input: Proceed to "COc1cc(O)c2c(c1O)C(=O)c1cc(C)ncc1C2=O"
output: No

input: Proceed to "CC(C)(C)C1=CC(=CC=C2C=CN(CCCCCCCCCCCO)C=C2)C=C(C(C)(C)C)C1=O"
output: Yes

====

experimental.details: NCI Yeast Anticancer Drug Screen. Data for the wt2 strain (AID 169);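 further: 0% = growth of vehicle-treated yeast cultures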
setup.conditions: S. cerevisiae wt2 strain growth inhibition; at 33.0 µM
The panel holds about 79,000 compounds, 15% with a hit somewhere; the sample as a whole holds those more often. The source made the active and inactive calls. Cut-off read from the data, not from the text of the source: active = growth inhibition above about 70%; inactive = the rest.
Thanks in advance; please answer with one of these: active, inactive

input: Hi team, can someone confirm the assay call for CC(NCCN(C)C)C1CCC2C3CCc4cc(O)ccc4C3CCC12C (stereo unspecified) ?
output: active

input: Proceed to "O=C1NC(SSC2=NNC3(C(=O)N2)c2ccccc2-c2ccccc23)=NNC12c1ccccc1-c1ccccc12"
output: inactive

input: Proceed to "O=c1[nH]c2ccc(Cl)cc2o1"
output: inactive

input: Proceed to "COc1cc([C@@H]2c3cc4c(cc3[C@@H](Nc3ccc(NC(=O)c5cc([N+](=O)[O-])cn5C)cc3)[C@H]3COC(=O)[C@H]23)OCO4)cc(OC)c1O"
output: inactive

input: Proceed to "CCCCN(CCCC)C(=O)/C=C/c1ccccc1"
output: inactive

input: Proceed to N=C1N=Nc2nc(C3(c4nc5n(c4O)C(=N)N=N5)Cc4ccccc4C3=O)c(O)n21 (stereo unspecified)
output: inactive

input: Proceed to "CN(C)CCNC(=O)c1cccc2c1Oc1c(cccc1[N+](=O)[O-])O2"
output: inactive

input: Proceed to CN(C)c1ccc(C2CC(C)(O)Oc3cc4c(cc32)OCO4)cc1 (stereo unspecified)
output: inactive

input: Proceed to "O=C(O)c1cc2ccccc2c2c1C(=O)c1ccccc1-2"
output: active

input: Proceed to "Clc1ccc(NCNC2Nc3ccccc3N2)cc1Cl"
output: active

input: Proceed to "O=C(/C=C\c1cccc(C(F)(F)F)c1)c1ccccc1"
output: inactive

====

experimental.details: NCI Yeast Anticancer Drug Screen. Data for the CLN2oe strain (AID 163);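 further: 0% = growth of vehicle-only control cultures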
setup.conditions: S. cerevisiae CLN2oe strain, at 100.0 µM, stronger effect = higher value
Compounds without any hit were thinned out: in the full panel of roughly 79,000, 15% have a hit.
Each entry gets class 0 if its growth inhibition stays under 70%, and class 1 if its growth inhibition is 70% or above.

input: Entry "O=C(/C=C\c1cccc(C(F)(F)F)c1)c1ccccc1" : is its growth inhibition no less than 70%?
output: class 0

input: Proceed to "Cc1ccccc1N=Cc1cc(Cl)ccc1O"
output: class 0

input: Proceed to COC1CCC(O)C(/C=C/[N+](=O)[O-])C1 (stereo unspecified)
output: class 1

input: Proceed to COC(=O)NC1C(C)OC(OC2C/C=C(/C)C3C=CC4C(OC5CC(OC6CC(O)C(OC7CC(O)C(OC)C(C)O7)C(C)O6)C(O)C(C)O5)C(C)CC(C)C4C3(C)/C(O)=C3\C(=O)OC4(CC(C)C(CO)=CC4/C=C\2C)C3=O)CC1(C)[N+](=O)[O-] (stereo unspecified)
output: class 0

input: Proceed to COc1cc([C@@H]2c3cc4c(cc3[C@H](OC3OC5COC(C(C)C)OC5C(O)C3O)C3COC(=O)[C@@H]32)OCO4)cc(OC)c1O (stereo partly specified)
output: class 0

Sourced from PubChem BioAssay (NCI)
